test: E. coli acrAB mutant growth effects, primary screen, E. coli filamentation inducers, strain DRC39, OD650, 48 h (AID 1179);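 further: screen aims at cell division blockers that make cells filament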; details: E. coli DRC39 delta-acrAB growth, higher = more signal, called active from +8 up or from −8 down
measurement type: z-score
Field format: numeric only.

Some solved entries appear below for comparison.
compound: COC(=O)Cn1c(C(=O)N(C)C)cc2c1C[C@H]1CN(C(=O)c3ccccc3)[C@@](Cc3ccc(OC)cc3)(C(=O)OC)[C@@H]21
numeric readout: -0.263

compound: N[C@@H](Cc1ccccc1)Cn1cc(C2(O)CCCCC2)nn1
numeric readout: -0.607

compound: CC(C)CNC(=O)[C@@H]1c2ccccc2C(=O)N(C(C)C)[C@H]1c1ccc(CO)cc1
numeric readout: 1.76

compound: COCCCN1C(=O)[C@@]2(Cc3ccccc31)c1ccccc1C(=O)N(Cc1ccccc1OC)[C@H]2c1ccc(CO)cc1
numeric readout: -0.128

Reported z-score ( CC(=O)c1ccc(C(O)C2C=CC3C(=O)N(C)C(=O)C3N2NC(=O)OC(C)(C)C)cc1 (stereo not given) ) = -0.47

These data points were gathered from PubChem BioAssay.
